Test: Cytotoxicity assay in Vero E6 cells (neutral red uptake)
Format: cell-based
Conditions: African green monkey; Vero E6 cells, 2 days at 37° C., neutral red uptake; read-out: Vero CC50
Note to self: use 1 only for CC50 at 2 days readings below 20 µM; a reading exactly at 20 µM still gets -1.

Sample smiles	Class label
Cc1ccc(OCCN(C)C)cc1C(=O)N[C@H](C)c1cc(-c2cccs2)nc2ccccc12	1
CCn1ccc(-c2cc([C@@H](C)NC(=O)c3cc(N4CCN(C)CC4)ccc3C)c3ccccc3n2)n1	1
Cc1ccc(OCCN(C)C)cc1C(=O)N[C@H](C)c1cc(-c2cncnc2)nc2ccccc12	-1
Cc1ccc(OCCN(C)C)cc1C(=O)N[C@H](C)c1cc(-c2cnn(CCN(C)C)c2)nc2ccccc12	-1
Cc1ccc(OC[C@@H]2CCN2C)cc1C(=O)NC1(c2cc(-c3cnn(C)c3)nc3ccccc23)CC1	-1
CCn1ccc(-c2cc([C@@H](C)NC(=O)c3cc(N4C[C@H]5C[C@@H]4CN5C)ccc3C)c3ccccc3n2)n1	-1

Consider now this further compound.
Is it true that CC50 at 2 days reported for Cc1ccc(N2CCN(C)CC2)cc1C(=O)NC1(c2cc(-c3cnn(C)c3)nc3ccccc23)CC1 is less than 20 µM?
-1

====

pIC50 by entry:
Biological target: UniProt P0DTD1
Assay: FRET-based PLpro enzymatic assay
Type: biochemical
Conditions: 200 nM PLpro, 10 μM FRET substrate, 30 min preincubation at 30° C.; read-out: IC50
pIC50: −log10 of the molar value.

Sample smiles	Observed measurement
Cc1ccc(OCCN(C)C)cc1C(=O)N[C@H](C)c1cc(-c2cnn(CC(=O)N3CCCC3)c2)nc2ccccc12	> 6.30
Cc1ccc(N2CCN(C)C3(CC3)C2)cc1C(=O)N[C@H](C)c1cc(-c2cnn(C)c2)nc2ccccc12	> 6.30
Cc1ccc(OCCN(C)C)cc1C(=O)N[C@H](C)c1cc(-c2ccc3c(c2)OC(F)(F)O3)nc2ccccc12	> 6.30
Cc1ccc(N2CCN(C)CC2)cc1C(=O)N[C@H](C)c1cc(-c2ccco2)nc2ccccc12	> 6.30
Cc1ccc(N2CCC(N(C)C)CC2)cc1C(=O)N[C@H](C)c1cc(-c2cnn(C)c2)nc2ccccc12	5.30 to 6.00

Report pIC50 for Cc1ccc(OCCN(C)C)cc1C(=O)N[C@H](C)c1cc(-c2cn[nH]c2)nc2ccccc12 please.
> 6.30

Report pIC50 for Cc1ccc(OC2CN(C)C2)cc1C(=O)N[C@H](C)c1cc(-c2cnn(C)c2)nc2ccccc12 please.
> 6.30

Report pIC50 for COc1cccc(-c2cc([C@@H](C)NC(=O)c3cc(OCCN(C)C)ccc3C)c3ccccc3n2)c1 please.
> 6.30

Report pIC50 for Cc1ccc(OCCN(C)C)cc1C(=O)N[C@H](C)c1cc(-c2cnn(CCO)c2)nc2ccccc12 please.
> 6.30

Report pIC50 for COc1ncc(-c2cc([C@@H](C)NC(=O)c3cc(OCCN(C)C)ccc3C)c3ccccc3n2)cn1 please.
< 5.30

Report pIC50 for Cc1ccc(OCCN(C)C)cc1C(=O)N[C@H](C)c1cc(-c2cnn(CC(F)(F)F)c2)nc2ccccc12 please.
> 6.30

Report pIC50 for Cc1ccc(OCCN(C)C)cc1C(=O)N[C@H](C)c1cc(-c2ccc(CN3CCCC3)s2)nc2ccccc12 please.
> 6.30

Report pIC50 for Cc1ccc(OCCN(C)C)cc1C(=O)N[C@H](C)c1cc(-c2ccc3cn[nH]c3c2)nc2ccccc12 please.
< 5.30

Report pIC50 for Cc1ccc(OCCN(C)C)cc1C(=O)N[C@H](C)c1cc(-c2ccc(CN)s2)nc2ccccc12 please.
> 6.30

Report pIC50 for Cc1ccc(OCCN(C)C)cc1C(=O)N[C@H](C)c1cc(-c2cncnc2)nc2ccccc12 please.
6.00 to 6.30

Report pIC50 for Cc1ccc(N2C[C@H]3CN(C)C[C@H]3C2)cc1C(=O)N[C@H](C)c1cc(-c2ccn(C)n2)nc2ccccc12 please.
> 6.30

Report pIC50 for Cc1ccc(OCCN(C)C)cc1C(=O)N[C@H](C)c1cc(-c2cnn(CC(=O)O)c2)nc2ccccc12 please.
> 6.30

Report pIC50 for Cc1ccc(OCCN(C)C)cc1C(=O)N[C@H](C)c1cc(Cl)nc2ccccc12 please.
6.00 to 6.30

Report pIC50 for Cc1ccc(OCCN(C)C)cc1C(=O)N[C@H](C)c1cc(-c2cnn(C3CC3)c2)nc2ccccc12 please.
> 6.30

Report pIC50 for Cc1ccc(OCCN(C)C)cc1C(=O)N[C@@H](C)c1cc(-c2cnn(C(F)F)c2)nc2ccccc12 please.
6.00 to 6.30

Report pIC50 for Cc1ccc(OCCN(C)C)cc1C(=O)N[C@H](C)c1cc(-c2cnn(C(F)F)c2)nc2ccccc12 please.
> 6.30

Report pIC50 for Cc1ccc(OCC2CN(C)C2)cc1C(=O)N[C@H](C)c1cc(-c2cnn(C)c2)nc2ccccc12 please.
> 6.30

Report pIC50 for Cc1ccc(OCCN(C)C)cc1C(=O)N[C@H](C)c1cc(OCc2c(F)c(F)c(F)c(F)c2F)nc2ccccc12 please.
< 5.30

Report pIC50 for Cc1ccc(O[C@H]2CCN(C)C2)cc1C(=O)N[C@H](C)c1cc(-c2cnn(C)c2)nc2ccccc12 please.
> 6.30

Report pIC50 for Cc1ccc(OCCN(C)C)cc1C(=O)N[C@H](C)c1cc(-c2cccs2)nc2ccccc12 please.
> 6.30

Report pIC50 for Cc1ccc(OC[C@@H]2CCCN2C)cc1C(=O)N[C@H](C)c1cc(-c2ccn(C)n2)nc2ccccc12 please.
> 6.30

Report pIC50 for Cc1ccc(NC2(C)CN(C)C2)cc1C(=O)N[C@H](C)c1cc(-c2cnn(C)c2)nc2ccccc12 please.
5.30 to 6.00

Report pIC50 for Cc1ccc(N(C)C2CN(C)C2)cc1C(=O)N[C@H](C)c1cc(-c2cnn(C)c2)nc2ccccc12 please.
5.30 to 6.00

Report pIC50 for Cc1ccc(N2CCC3(CC2)CN(C)C3)cc1C(=O)N[C@H](C)c1cc(-c2cnn(C)c2)nc2ccccc12 please.
6.00 to 6.30

Report pIC50 for Cc1ccc(OCCN(C)C)cc1C(=O)N[C@H](C)c1cc(-n2ccnc2)nc2ccccc12 please.
> 6.30

====

CC50 at 2 days by entry:
Test: Cytotoxicity assay in Vero E6 cells (neutral red uptake)
Type: cell-based
Settings: African green monkey
Give the quantity in µM, number only.

// worked examples, CC50 at 2 days included
Sample smiles	CC50 at 2 days (µM)
CCn1ccc(-c2cc([C@@H](C)NC(=O)c3cc(N4CC5CCC(C4)N5C)ccc3C)c3ccccc3n2)n1	31.3
Cc1ccc(N2CC3CCC(C2)N3C)cc1C(=O)NC1(c2cc(-c3cnn(C)c3)nc3ccccc23)CC1	53.8

Kindly review the next molecule as well.
Report CC50 at 2 days for Cc1ccc(N2CC3CCC(C2)N3C)cc1C(=O)N[C@H](C)c1cc(-c2ccn(C)n2)nc2ccccc12 please.
15.2

====

CC50 at 2 days by entry:
Assay: Cytotoxicity assay in Vero E6 cells (neutral red uptake)
Type: cell-based
Details: African green monkey; Vero E6 cells, 2 days at 37° C., neutral red uptake; read-out: Vero CC50
Give the quantity in µM, number only.

Report CC50 at 2 days for Cc1ccc(OC2CN(C)C2)cc1C(=O)N[C@H](C)c1cc(-c2cnn(C)c2)nc2ccccc12 please.
72.5

Report CC50 at 2 days for Cc1ccc(OCCN(C)C)cc1C(=O)N[C@@H](C)c1cc(-c2cccs2)nc2ccccc12 please.
11.4

Report CC50 at 2 days for Cc1ccc(OCCN(C)C)cc1C(=O)N[C@H](C)c1cc(-c2ccc3c(c2)OC(F)(F)O3)nc2ccccc12 please.
15.2

Report CC50 at 2 days for Cc1ccc(OCCN(C)C)cc1C(=O)N[C@H](C)c1cc(-c2cnn(CC(F)(F)F)c2)nc2ccccc12 please.
60.8

Report CC50 at 2 days for Cc1ccc(C2=CCN(C)CC2)cc1C(=O)N[C@H](C)c1cc(-c2cnn(C)c2)nc2ccccc12 please.
92.7

Report CC50 at 2 days for Cc1ccc(N(C)C2CN(C)C2)cc1C(=O)N[C@H](C)c1cc(-c2cnn(C)c2)nc2ccccc12 please.
97.4

Report CC50 at 2 days for Cc1ccc(OCC2CN(C)C2)cc1C(=O)N[C@H](C)c1cc(-c2cnn(C)c2)nc2ccccc12 please.
96.1

Report CC50 at 2 days for Cc1ccc(N2CCC3(CC2)CN(C)C3)cc1C(=O)N[C@H](C)c1cc(-c2cnn(C)c2)nc2ccccc12 please.
76.5

Report CC50 at 2 days for Cc1ccc(OCCN(C)C)cc1C(=O)N[C@H](C)c1cc(-c2cncs2)nc2ccccc12 please.
44.7

Report CC50 at 2 days for Cc1ccc(N2CCN(C)CC2)cc1C(=O)N[C@H](C)c1cc(-c2ccn(C)n2)nc2ccccc12 please.
30.7

Report CC50 at 2 days for Cc1ccc(OCCN(C)C)cc1C(=O)N[C@H](C)c1cc(-c2ccc(CN3CCCC3)s2)nc2ccccc12 please.
27.1

Report CC50 at 2 days for Cc1ccc(OCCN(C)C)cc1C(=O)N[C@H](C)c1cc(-c2cnc3[nH]ccc3c2)nc2ccccc12 please.
25.8

Report CC50 at 2 days for Cc1ccc(N(C)C2(C)CN(C)C2)cc1C(=O)N[C@H](C)c1cc(-c2cnn(C)c2)nc2ccccc12 please.
129

Report CC50 at 2 days for Cc1ccc(OCCN(C)C)cc1C(=O)N[C@H](C)c1cc(-c2cnn(C(F)(F)F)c2)nc2ccccc12 please.
17.7

Report CC50 at 2 days for Cc1ccc(OC[C@@H]2CCCN2C)cc1C(=O)N[C@H](C)c1cc(-c2ccn(C)n2)nc2ccccc12 please.
18.8
